Data credit: the supplement of paper PMC9170038

tested on: MS2 coat protein; assay: apparent KD of MS2 coat protein; designed switch direction (-1 OFF switch, 1 ON switch): -1; higher = weaker reporter binding; conditions: Eterna round: R95; input ligand: microRNA oligo, concentration not stated

Chain	Display Unit	apparent KD of MS2 coat protein
GAAGAGACAGGAUAUACAUGAGGAUCACCCAUGUGAGGAGGUUGGAGGCGGAGAAGGUGUAGAAGGGUCAAAGA [JR_Exclu3_Sub022] (puzzle: Exclusion 3)	nM	36
GAAAAGGUAGGAUAUACGAAAAAAAAGGGUAGAAAAAAAAAACAUGAGGAUCACCCAUGUAGAAGGACCAAAAG [salish99_ex2_r3_059] (puzzle: Exclusion 2)	nM	26.6
AAUAUAAGCAAGAUCCUAAACAUGAGGAUCACCCAUGUGCUCGUCUUAUAAAGUACUAUCACGAAAGUGAUAGUACA [Sensor 3, v1 - 65] (puzzle: Sensor v3, turn-off variant 1)	nM	398
AGCCCUAAUGUCAGGAUAUGCAUCCUUAAUGGACGGCAGAAGGGACAUGAGGAUCACCCAUGUAAAUAGAAAUU [Direised] (puzzle: Brourd's mod of Exclusion 4)	nM	31.4
AAAUACAAGCAGAGAUCCUACAUGAGGAUCACCCAUGUGCUCGUCUUAUAAAGUACUAUCACGAAAGUGAUAGUACA [Sensor 3, v1 - 17] (puzzle: Sensor v3, turn-off variant 1)	nM	41.8
CAGUACUGAGGAUAUACAUGAGGAUCACCCAUGUGUUCCAGCUAGGGAACUAGCAAAAGUAGAAGGCAGUACUG [salish99_ex3_r3_075] (puzzle: Exclusion 3)	nM	23.1
AGUAACAGAGGAUAUACUAUUUUAUGUGUUUAUUGUUUUGAACAUGAGGAUCACCCAUGUAGAAGGCUGAAUAA [JMF 95] (puzzle: Exclusion 2)	nM	24.5
GCCUGAGCAGGAUAUUCAAUAAUUCACAUGAGGAUCACCCAUGUCCAGCGAAAGCUAGGAGGAGAAGGGCUCAGGC [Mat - Exclusion 5 - Eli mod - D86] (puzzle: Exclusion 5)	nM	16.5
AGUAGAUCUACGCUUGCGUGGAUCUGCAAUGCAGGUGUUACAUGAGGAUCACCCAUGUCCUCAUUUGCUCGUCUUAG [JL turnoff v2 99.06] (puzzle: Sensor v3, turn-off variant 2)	nM	663
GAUUAUGCGAGCUUUAGGGACAUGAGGAUCACCCAUGUUCGUCUUAUUAGUCUGAAUGCACUGACAUACCUAAAUCU [JMF 75] (puzzle: Sensor v3, turn-off variant 1)	nM	17.7
